- System: UO-31 renal
- assay-overview: NCI tumour cell line growth inhibition, 48 h
recorded-endpoint: TGI

Q: Answer briefly: TGI recorded on UO-31 renal for `COc1cc([N+](=O)[O-])c(OC)cc1-c1nc2sc(C)c(C)n2c1/C(N)=N/C(=N)N`
Ans: > 100 µM

Q: Answer briefly: TGI recorded on UO-31 renal for `O=C1c2ccccc2C(=O)c2cc3c(cc21)CS(=O)C3`
Ans: > 100 µM

Q: Answer briefly: TGI recorded on UO-31 renal for `CN(C)CCNC(=O)c1cccc2c1nc(-c1ccc(F)cc1)c1ccccc12`
Ans: 4.51 µM

Q: Answer briefly: TGI recorded on UO-31 renal for `CCOCC1(COCC)CCC(c2[nH]ncc2CN(C)CCNC)CC1`
Ans: > 100 µM

Q: Answer briefly: TGI recorded on UO-31 renal for CS(=O)(=O)N1CC(CCl)c2ccc(NO)cc21 (centres undefined)
Ans: 16.5 µM

Q: Answer briefly: TGI recorded on UO-31 renal for `COc1cc(/C=C/C(=O)c2cccc(-n3cc(-c4cc(OC)c(OC)c(OC)c4)[nH]c3=O)c2)cc(OC)c1OC`
Ans: 3.13 µM

Q: Answer briefly: TGI recorded on UO-31 renal for `C#CC[C@@H]1C(=O)N(Cc2ccc(OC)cc2)[C@@H](C(C)C)C(=O)N1Cc1ccc(OC)cc1`
Ans: > 100 µM

Q: Answer briefly: TGI recorded on UO-31 renal for CC(CSC(=N)N)C(N)=O (centres undefined)
Ans: > 100 µM

Q: Answer briefly: TGI recorded on UO-31 renal for `O=C1[C@@H]2C(c3ccc(Br)cc3)=NO[C@@H]2C(=O)N1c1ccc(Cc2ccc(N3C(=O)[C@H]4C(c5ccc(Br)cc5)=NO[C@H]4C3=O)cc2)cc1`
Ans: > 40 µM
